src = the supplement of paper PMC6555819

Tested on: PXR:RXRa (NR concentration 270 nM, RXRa partner concentration 90 nM)
Test: PBM binding z-score (relative to random genomic background probes); higher = stronger binding; sequences stand for … in GC…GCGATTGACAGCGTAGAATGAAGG
Please note: y applies when PBM binding z-score is 0.3 or greater, and n applies otherwise.

1. CCTATTAGTTGACCATTAGGGCAACCGAAGCTCG = n
2. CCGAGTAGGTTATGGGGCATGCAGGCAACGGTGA = n
3. CCGAGTAGTTTATGGGGCATTCAGGCAACGGTGA = n
4. TCGAGTAGGTTAGTGGCATTCAGAATGGCGTCGA = n
5. TCGAGTAGGTTAATCGGGGCATTCAGCCAACATA = y
6. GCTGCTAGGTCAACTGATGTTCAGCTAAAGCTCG = y
7. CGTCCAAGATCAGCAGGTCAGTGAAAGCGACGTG = n
8. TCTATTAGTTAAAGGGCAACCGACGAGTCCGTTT = y

Determine whether measured PBM binding z-score meets or exceeds 0.3 for CCTACTGGGCCATCAGGTCATTGATATCAACGTT
y

Determine whether measured PBM binding z-score meets or exceeds 0.3 for CTAACGAGGGCATGAGTTGATAGCAAATGCCGAT
y

Determine whether measured PBM binding z-score meets or exceeds 0.3 for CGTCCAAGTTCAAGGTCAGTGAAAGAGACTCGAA
y

Determine whether measured PBM binding z-score meets or exceeds 0.3 for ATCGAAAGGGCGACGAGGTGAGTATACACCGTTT
n

Determine whether measured PBM binding z-score meets or exceeds 0.3 for CCTACTGGGCCATCAGGTCATAGATATCAACGTT
y
